Protocol description: Pharmacokinetics and total colon distribution after single oral administration
Format: in vivo, male C57BL/6 mice
Condition info: male, C57BL/6, mouse, plasma; mice, oral 5 mg/kg, 6 h; measured cpd = dosed cpd (1 as Na salt, 44 as NH4+ salt); read-out: Mean plasma concentration
Property measured: concentration at 6 h (ng/mL)

COc1cc(Nc2cc(Oc3ccc(NC(=O)Nc4cc(C(C)(C)C)cc(NS(C)(=O)=O)c4OC)c4ccccc34)ccn2)ccc1P(C)(=O)O	0

====

Study target: hERG (Homo sapiens (Human))
Sequence (Q12809 whole entry): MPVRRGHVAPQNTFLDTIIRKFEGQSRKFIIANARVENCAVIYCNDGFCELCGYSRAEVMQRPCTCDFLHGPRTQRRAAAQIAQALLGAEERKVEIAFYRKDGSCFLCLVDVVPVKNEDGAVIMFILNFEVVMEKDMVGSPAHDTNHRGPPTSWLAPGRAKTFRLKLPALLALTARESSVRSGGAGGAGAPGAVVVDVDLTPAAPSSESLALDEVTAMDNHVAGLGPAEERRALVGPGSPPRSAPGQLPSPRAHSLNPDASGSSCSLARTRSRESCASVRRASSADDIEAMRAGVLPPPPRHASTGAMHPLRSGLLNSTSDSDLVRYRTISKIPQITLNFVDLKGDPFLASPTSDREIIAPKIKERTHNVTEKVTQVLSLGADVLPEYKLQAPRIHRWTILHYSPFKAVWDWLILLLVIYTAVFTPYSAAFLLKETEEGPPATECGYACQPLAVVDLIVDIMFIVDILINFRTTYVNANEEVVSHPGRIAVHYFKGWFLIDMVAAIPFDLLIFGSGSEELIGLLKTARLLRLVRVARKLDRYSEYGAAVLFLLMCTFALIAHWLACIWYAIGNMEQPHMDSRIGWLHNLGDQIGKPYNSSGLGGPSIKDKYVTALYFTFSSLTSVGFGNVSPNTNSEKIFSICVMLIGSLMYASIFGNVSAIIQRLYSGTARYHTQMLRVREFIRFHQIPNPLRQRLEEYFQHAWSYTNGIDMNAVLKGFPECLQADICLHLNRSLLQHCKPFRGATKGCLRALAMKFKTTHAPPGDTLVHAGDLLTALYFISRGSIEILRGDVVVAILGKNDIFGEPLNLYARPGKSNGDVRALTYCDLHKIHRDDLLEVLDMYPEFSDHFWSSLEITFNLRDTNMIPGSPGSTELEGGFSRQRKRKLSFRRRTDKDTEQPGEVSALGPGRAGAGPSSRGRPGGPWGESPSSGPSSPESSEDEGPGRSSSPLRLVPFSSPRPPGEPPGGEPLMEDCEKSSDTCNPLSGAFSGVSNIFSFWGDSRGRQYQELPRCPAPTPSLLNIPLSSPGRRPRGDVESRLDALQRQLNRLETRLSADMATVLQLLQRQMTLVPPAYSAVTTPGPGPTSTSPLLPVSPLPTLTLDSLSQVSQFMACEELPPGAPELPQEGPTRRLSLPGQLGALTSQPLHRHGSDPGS
Protocol description: hERG inhibition, IonWorks patch clamp electrophysiology
Type: cell-based
Condition info: human; hERG, 3.7 μM; read-out: % Inhibition at Top Concentration
Property measured: inhibition at 3.7 µM

COc1cc(Nc2cc(Oc3ccc(NC(=O)Nc4cc(C(C)(C)C)cc(NS(C)(=O)=O)c4OC)c4ccccc34)ccn2)cc(OC)c1C(=O)NCCN1CCN(C)CC1	13%

====

Protocol description: Solubility in fasted-state simulated colonic fluid (FaSSCoF) at pH 6.5
Type: physicochemical
Condition info: 25 °C, pH 6.5, fassgf or other biorelevant, thermodynamic from solid, pH 6.5 FaSSCoF Solubility (mg/mL) Run 3
Property measured: solubility thermodynamic at 24 h (mg/mL)

COc1cc(Nc2cc(Oc3ccc(NC(=O)Nc4cc(C(C)(C)C)cc(NS(C)(=O)=O)c4OC)c4ccccc34)ccn2)cc(OC)c1C(=O)NC1CCN(C)CC1 [17(bz)]	0.014
COc1cc(Nc2cc(Oc3ccc(NC(=O)Nc4cc(C(C)(C)C)cc(NS(C)(=O)=O)c4OC)c4ccccc34)ccn2)cc(OC)c1C(=O)NCCN(C)C [Example 39]	0.073
COc1cc(Nc2cc(Oc3ccc(NC(=O)Nc4cc(C(C)(C)C)cc(NS(C)(=O)=O)c4OC)c4ccccc34)ccn2)cc(OC)c1C(=O)NCCN1CCN(C)CC1 [Example 22]	0.013
COc1cc(Nc2cc(Oc3ccc(NC(=O)Nc4cc(C(C)(C)C)cc(NS(C)(=O)=O)c4OC)c4ccccc34)ccn2)cc(OC)c1C(=O)NCCN1CCN(CCO)CC1 [Example 37]	0.007

====

Protocol description: Pharmacokinetics and total colon distribution after single oral administration
Format: in vivo, male C57BL/6 mice
Condition info: male, C57BL/6, mouse, total colon; mice, 2 h; Ex. 16 measured after oral 5 mg/kg of Ex. 19 (Na salt); read-out: total colon level
Property measured: concentration at 2 h (ng/g)

COc1cc(Nc2cc(Oc3ccc(NC(=O)Nc4cc(C(C)(C)C)cc(NS(C)(=O)=O)c4OC)c4ccccc34)ccn2)ccc1C(=O)NCCOCCOCCO [Example 16]	2400

====

Tested on: Jurkat cells
Protocol description: Cell cytotoxicity assay (r)
Format: cell-based, human
Condition info: 24 hours, 5 μg/mL
Property measured: % Viability at 5 μg/mL (%)

COc1cc(Nc2cc(Oc3ccc(NC(=O)Nc4cc(C(C)(C)C)cc(NS(C)(=O)=O)c4OC)c4ccccc34)ccn2)ccc1C(=O)NCCN1CC[C@@H](O)C1	18.0
COc1cc(Nc2cc(Oc3ccc(NC(=O)Nc4cc(C(C)(C)C)cc(NS(C)(=O)=O)c4OC)c4ccccc34)ccn2)cc(OC)c1C(=O)NCC1CCN(C)CC1	94.0
COc1cc(Nc2cc(Oc3ccc(NC(=O)Nc4cc(NS(C)(=O)=O)cc(C(C)(C)C)c4)c4ccccc34)ccn2)ccc1C(=O)NCCCN1CCN(C)CC1	41.0
COc1cc(Nc2cc(Oc3ccc(NC(=O)Nc4cc(C(C)(C)C)cc(NS(C)(=O)=O)c4OC)c4ccccc34)ccn2)ccc1C(=O)N[C@@H]1CCN(C)C1	9.0
COc1cc(Nc2cc(Oc3ccc(NC(=O)Nc4cc(C(C)(C)C)cc(NS(C)(=O)=O)c4OC)c4ccccc34)ccn2)ccc1C(=O)NCCC1(O)CCN(C)CC1	60.0
COc1cc(Nc2cc(Oc3ccc(NC(=O)Nc4cc(C(C)(C)C)cc(NS(C)(=O)=O)c4OC)c4ccccc34)ccn2)ccc1C(=O)NC(C)CN1CCN(C)CC1 (stereo not drawn)	0.2
